# system_tested: hPDE4B (Homo sapiens, UniProt Q07343)
# Sequence (Q07343 whole entry): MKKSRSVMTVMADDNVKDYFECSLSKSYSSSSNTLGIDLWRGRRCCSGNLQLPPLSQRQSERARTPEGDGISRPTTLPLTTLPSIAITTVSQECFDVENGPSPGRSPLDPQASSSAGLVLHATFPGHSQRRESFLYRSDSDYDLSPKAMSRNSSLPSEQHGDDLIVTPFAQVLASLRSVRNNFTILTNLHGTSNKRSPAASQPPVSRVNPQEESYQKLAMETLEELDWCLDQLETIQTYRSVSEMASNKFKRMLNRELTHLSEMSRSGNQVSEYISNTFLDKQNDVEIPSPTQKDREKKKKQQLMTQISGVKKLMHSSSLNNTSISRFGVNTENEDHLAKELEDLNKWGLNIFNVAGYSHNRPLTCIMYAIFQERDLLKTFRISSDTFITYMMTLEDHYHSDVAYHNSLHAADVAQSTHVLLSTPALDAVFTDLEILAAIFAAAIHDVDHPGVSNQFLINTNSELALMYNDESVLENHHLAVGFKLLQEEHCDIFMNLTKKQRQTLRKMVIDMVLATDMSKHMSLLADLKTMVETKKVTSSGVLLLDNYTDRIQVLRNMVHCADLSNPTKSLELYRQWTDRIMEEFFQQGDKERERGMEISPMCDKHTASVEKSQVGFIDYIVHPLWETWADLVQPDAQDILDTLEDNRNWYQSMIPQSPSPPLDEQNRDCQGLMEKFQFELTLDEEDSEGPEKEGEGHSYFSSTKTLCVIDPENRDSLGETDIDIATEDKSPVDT
# protocol: In-vitro real-time enzyme-coupled spectrophotometric assay for PDE4 enzymes (hPDE4B)
# experimental_parameters: read-out: hPDE4B activity; enzyme-coupled NADH assay, absorbance at 340 nm
Reported IC50 by item:

COc1ccc(Cc2ccc(N3CCC3C(=O)O)nc2)c(F)c1-c1cccc(Cl)c1 (centres unmarked)	< 5 µM

Consider now this further molecule.
The reported IC50 value, hPDE4B (Homo sapiens, UniProt Q07343), for COc1ccc(C(O)c2ccc(NC(=O)NNC(C)=O)cc2)c(F)c1-c1cccc(Cl)c1 (centres unmarked) reads 5 to 20 µM

---

# system_tested: hPDE4B (Homo sapiens)
# protocol: In-vitro real-time enzyme-coupled spectrophotometric assay for PDE4 enzymes (hPDE4B)
Reported IC50 by item:

Worked cases, IC50 given:
COc1ccc(Cc2ccc(NS(N)(=O)=O)nc2)c(F)c1-c1cccc(Cl)c1	< 5 µM
COc1ccc(Cc2cnc(NS(N)(=O)=O)nc2)c(F)c1-c1cccc(Cl)c1	< 5 µM
COc1ccc(Cc2ccc(C(=O)O)cc2)c(F)c1-c1cccc(C(C)=O)c1	5 to 20 µM

Consider now this further molecule.
So for COc1ccc(Cc2ccc(N3CC[C@@H]3C(=O)O)nc2)c(F)c1-c1cccc(Cl)c1 , the logged IC50 turned out to be 5 to 20 µM

---

# system_tested: hPDE4B (Homo sapiens, UniProt Q07343)
# protocol: In-vitro real-time enzyme-coupled spectrophotometric assay for PDE4 enzymes (hPDE4B)
pIC50: −log10 of the molar value.
Reported pIC50 by item:

COc1ccc(Cc2ccc3nc(C(=O)O)cn3c2)c(F)c1-c1cccc(Cl)c1	4.70 to 5.30
COc1ccc(Cc2ccc(N(C)CC(=O)O)nc2)c(F)c1-c1cccc(Cl)c1	> 5.30
COC(=O)c1ccc(Cc2ccc(OC)c(-c3cccc(C(C)=O)c3)c2F)cc1	4.40 to 4.70
COc1ccc(Cc2cnc(N3CCC(C(=O)O)C3)nc2)c(F)c1-c1cccc(Cl)c1 (centres unmarked)	4.40 to 4.70
COc1ccc(Cc2ccc(F)cc2)[n+]([O-])c1-c1cccc([N+](=O)[O-])c1	> 5.30
COc1ccc(Cc2ccc(O)nc2)c(F)c1-c1cccc(Cl)c1	> 5.30
COc1ccc(Cc2ccc(N3CCCC(C(=O)O)C3)nc2)c(F)c1-c1cccc(Cl)c1 (centres unmarked)	4.70 to 5.30

Consider now this further molecule.
So for COc1ccc(Cc2ccc(NS(N)(=O)=O)cc2)c(F)c1-c1cccc(Cl)c1 , the logged pIC50 turned out to be > 5.30

---

# system_tested: hPDE4B (Homo sapiens)
# protocol: In-vitro real-time enzyme-coupled spectrophotometric assay for PDE4 enzymes (hPDE4B)
Counter-ions that a name gives are not always drawn.
measured_quantity: IC50

Worked cases, IC50 given:
COc1ccc(Cc2ccc(NCC(=O)O)nc2)c(F)c1-c1cccc(Cl)c1	< 5 µM
COc1ccc(Cc2c(C)nn(CC(=O)O)c2C)cc1-c1cccc([N+](=O)[O-])c1	5 to 20 µM
COc1ccc(Cc2ccc(C(=O)O)nc2)c(F)c1-c1cccc(C(C)=O)c1	5 to 20 µM

Consider now this further compound.
The reported IC50 value, hPDE4B (Homo sapiens), for COc1ccc(Cc2ccc(N3CCC3C(=O)O)nc2)cc1-c1cccc(Cl)c1 (stereo not shown) [Example A-067, acetate salt] reads 5 to 20 µM

---

# system_tested: UniProtKB Q07343
# protocol: In-vitro real-time enzyme-coupled spectrophotometric assay for PDE4 enzymes (hPDE4B)
Reported IC50 by item:

Worked cases, IC50 given:
COC(=O)c1ccc(Cc2ccc(OC(F)F)c(-c3cccc(Cl)c3)c2)cn1 [Example A-075]	< 5 µM
COc1ccc(Cc2ccc(N3CCC3C(=O)O)nc2)c(F)c1-c1cccc(Cl)c1 (stereo not shown) [Example A-054]	< 5 µM
COc1ccc(Cc2ccc(C(=O)NS(C)(=O)=O)nc2)c(F)c1-c1cccc(Cl)c1 [Example A-050]	< 5 µM

Consider now this further compound.
So for COc1ccc(Cc2nnc(NC(=O)NCCC(=O)O)s2)c(F)c1-c1cccc(Cl)c1 [Example A-027] , the logged IC50 turned out to be 20 to 40 µM

---

Reported pIC50 by item:
# system_tested: hPDE4B (Homo sapiens)
# protocol: In-vitro real-time enzyme-coupled spectrophotometric assay for PDE4 enzymes (hPDE4B)
pIC50: −log10 of the molar value.

COc1ccc(Cc2ccc(N3CCC[C@H]3C(=O)O)nc2)c(F)c1-c1cccc(Cl)c1	> 5.30
COc1ccc(Cc2nnc(NC(=O)NCCCC(=O)O)s2)c(F)c1-c1cccc(Cl)c1	4.70 to 5.30
COc1ccc(Cc2cnc(N3CCCC3C(=O)O)nc2)c(F)c1-c1cccc(Cl)c1 (centres unmarked)	> 5.30
CCOC(=O)C(=O)NCc1ccc(Cc2ccc(OC)c(-c3cccc(Cl)c3)c2F)cn1	> 5.30
COC(=O)c1ccc(Cc2ccc(OC)c(-c3cccc(C(C)=O)c3)c2F)cn1	> 5.30
COc1ccc(Cc2nnn[nH]2)c(F)c1-c1cccc(Cl)c1	4.40 to 4.70

The reported pIC50 value, hPDE4B (Homo sapiens), for COc1ccc(Cc2ccc(NS(N)(=O)=O)c(O)c2)c(F)c1-c1cccc(Cl)c1 reads 4.70 to 5.30

The reported pIC50 value, hPDE4B (Homo sapiens), for COc1ccc(Cc2cnc(N(C)CC(=O)O)nc2)c(F)c1-c1cccc(Cl)c1 reads > 5.30

---

# system_tested: hPDE4D (Homo sapiens)
# protocol: In-vitro real-time enzyme-coupled spectrophotometric assay for PDE4 enzymes (hPDE4D)
pIC50: −log10 of the molar value.
Reported pIC50 by item:

Worked cases, pIC50 given:
COC(=O)[C@@H]1CCCN1c1ccc(Cc2ccc(OC)c(-c3cccc(Cl)c3)c2F)cn1	> 5.30
COc1ccc(Cc2ccc(NS(N)(=O)=O)nc2)c(F)c1-c1cccc(Cl)c1	> 5.30
COc1ccc(Cc2cnc(N3CC(C(=O)O)C3)nc2)c(F)c1-c1cccc(Cl)c1	> 5.30

So for COc1ccc(Cc2ccc(-c3nnn[nH]3)nc2)c(F)c1-c1cccc(Cl)c1 , the logged pIC50 turned out to be > 5.30

So for COc1ccc(Cc2ccc(C(=O)O)nc2)cc1-c1cccc(Cl)c1 , the logged pIC50 turned out to be > 5.30

---

# system_tested: hPDE4D (Homo sapiens, UniProt Q08499)
# Sequence (Q08499 whole entry): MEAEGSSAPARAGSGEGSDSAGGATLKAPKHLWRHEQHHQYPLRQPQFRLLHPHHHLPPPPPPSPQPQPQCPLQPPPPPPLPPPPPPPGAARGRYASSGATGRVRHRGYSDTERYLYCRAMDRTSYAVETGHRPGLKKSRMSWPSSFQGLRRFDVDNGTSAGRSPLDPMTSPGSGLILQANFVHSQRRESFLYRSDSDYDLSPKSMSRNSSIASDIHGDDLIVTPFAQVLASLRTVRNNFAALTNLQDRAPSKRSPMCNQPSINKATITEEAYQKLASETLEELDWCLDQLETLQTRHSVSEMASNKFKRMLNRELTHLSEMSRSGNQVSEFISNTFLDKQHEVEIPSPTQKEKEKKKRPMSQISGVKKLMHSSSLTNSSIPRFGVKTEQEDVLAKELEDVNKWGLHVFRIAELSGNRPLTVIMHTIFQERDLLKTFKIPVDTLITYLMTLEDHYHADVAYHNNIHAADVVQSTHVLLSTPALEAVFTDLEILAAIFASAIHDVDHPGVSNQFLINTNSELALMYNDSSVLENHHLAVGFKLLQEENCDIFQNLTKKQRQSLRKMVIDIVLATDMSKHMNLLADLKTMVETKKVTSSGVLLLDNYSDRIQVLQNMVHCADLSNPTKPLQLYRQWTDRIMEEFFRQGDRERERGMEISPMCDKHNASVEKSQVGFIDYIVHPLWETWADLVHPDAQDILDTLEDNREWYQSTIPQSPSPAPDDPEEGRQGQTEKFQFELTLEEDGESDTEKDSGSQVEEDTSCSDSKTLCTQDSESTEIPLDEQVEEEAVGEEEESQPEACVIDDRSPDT
# protocol: In-vitro real-time enzyme-coupled spectrophotometric assay for PDE4 enzymes (hPDE4D)
# experimental_parameters: read-out: hPDE4D activity; enzyme-coupled NADH assay, absorbance at 340 nm
measured_quantity: IC50

NC(=O)Nc1ccc(Cc2ccc(OS(=O)(=O)O)c(-c3cccc(Cl)c3)c2)cc1 [Example A-062]	< 5 µM

So for COc1ccc(C(O)c2ccc(NC(=O)NNC(C)=O)cc2)c(F)c1-c1cccc(Cl)c1 (centres unmarked) [Example A-065] , the logged IC50 turned out to be < 5 µM

---

# system_tested: hPDE4B (Homo sapiens)
# protocol: In-vitro real-time enzyme-coupled spectrophotometric assay for PDE4 enzymes (hPDE4B)
pIC50: −log10 of the molar value.
Reported pIC50 by item:

CCOC(=O)CCCNC(=O)Nc1nnc(Cc2ccc(OC)c(-c3cccc(Cl)c3)c2F)s1 [Example A-030]	4.70 to 5.30
COc1ccc(Cc2ccc(CN3CCNC3=O)[n+]([O-])c2)c(F)c1-c1cccc(Cl)c1 [Example B-083]	> 5.30
COc1ccc(Cc2ccc(N(CC(=O)O)C(N)=O)nc2)c(F)c1-c1cccc(Cl)c1 [Example A-057]	> 5.30
COc1ccc(Cc2cnc(N3CC(C(=O)O)C3)nc2)c(F)c1-c1cccc(Cl)c1 [Example A-053]	4.70 to 5.30
COc1ccc(Cc2cnc(NS(N)(=O)=O)nc2)c(F)c1-c1cccc(C(C)=O)c1 [Example A-017]	> 5.30

So for COc1ccc(Cn2cncc2C(=O)O)c(F)c1-c1cccc(Cl)c1 [Example A-060] , the logged pIC50 turned out to be 4.70 to 5.30

So for CCNC(=O)Nc1ccc(Cc2ccc(OC)c(-c3cccc(Cl)c3)c2F)c[n+]1O [Example B-081] , the logged pIC50 turned out to be > 5.30

So for COc1ccc(Cc2ccc(N(CC(=O)O)C(C)=O)nc2)c(F)c1-c1cccc(Cl)c1 [Example A-037] , the logged pIC50 turned out to be > 5.30

---

# system_tested: hPDE4B (Homo sapiens)
# protocol: In-vitro real-time enzyme-coupled spectrophotometric assay for PDE4 enzymes (hPDE4B)
measured_quantity: IC50

COc1ccc(Cc2ccc(N3CCC[C@H]3C(=O)O)nc2)cc1-c1cccc(Cl)c1 [Example A-068]	< 5 µM
COc1ccc(Cc2cnc(NC(N)=O)[n+]([O-])c2)c(F)c1-c1cccc(Cl)c1 [Example A-015]	< 5 µM
COc1ccc(Cc2ccc(N3CC[C@H]3C(=O)O)nc2)c(F)c1-c1cccc(Cl)c1 [Example A-066]	< 5 µM
COc1ccc(Cc2ccc(NC(=O)NCCC(=O)O)nc2)c(F)c1-c1cccc(Cl)c1 [Example A-032]	5 to 20 µM
COc1ccc(Cc2ccc(NS(N)(=O)=O)cc2)c(F)c1-c1cccc(C(C)=O)c1 [Example A-016]	< 5 µM

The reported IC50 value, hPDE4B (Homo sapiens), for COc1ccc(Cc2ccc(NC(=O)NCC(=O)O)nc2)c(F)c1-c1cccc(Cl)c1 [Example A-028] reads < 5 µM

The reported IC50 value, hPDE4B (Homo sapiens), for COc1ccc(Cc2ccc(-c3nnn[nH]3)nc2)c(F)c1-c1cccc(Cl)c1 [Example A-042] reads < 5 µM

The reported IC50 value, hPDE4B (Homo sapiens), for COc1ccc(Cc2ccc(C(=O)N3CCC(C(=O)O)CC3)nc2)c(F)c1-c1cccc(Cl)c1 [Example A-034] reads 20 to 40 µM

The reported IC50 value, hPDE4B (Homo sapiens), for COC(=O)c1ccc(Cc2ccc(OC)c(-c3cccc(Cl)c3)c2)cn1 [Example A-073] reads < 5 µM

The reported IC50 value, hPDE4B (Homo sapiens), for CCNC(=O)NCc1ccc(Cc2ccc(OC)c(-c3cccc(Cl)c3)c2F)c[n+]1[O-] [Example B-082] reads < 5 µM

The reported IC50 value, hPDE4B (Homo sapiens), for COc1ccc(Cn2ccc(C(=O)O)cc2=O)cc1-c1cccc([N+](=O)[O-])c1 [Example A-007] reads 5 to 20 µM

Source: patent US20120213758A1
